Could you please report measured pIC50 for the items listed next?
Molecular target: ATM (Homo sapiens (Human))
Sequence (Q13315 whole entry): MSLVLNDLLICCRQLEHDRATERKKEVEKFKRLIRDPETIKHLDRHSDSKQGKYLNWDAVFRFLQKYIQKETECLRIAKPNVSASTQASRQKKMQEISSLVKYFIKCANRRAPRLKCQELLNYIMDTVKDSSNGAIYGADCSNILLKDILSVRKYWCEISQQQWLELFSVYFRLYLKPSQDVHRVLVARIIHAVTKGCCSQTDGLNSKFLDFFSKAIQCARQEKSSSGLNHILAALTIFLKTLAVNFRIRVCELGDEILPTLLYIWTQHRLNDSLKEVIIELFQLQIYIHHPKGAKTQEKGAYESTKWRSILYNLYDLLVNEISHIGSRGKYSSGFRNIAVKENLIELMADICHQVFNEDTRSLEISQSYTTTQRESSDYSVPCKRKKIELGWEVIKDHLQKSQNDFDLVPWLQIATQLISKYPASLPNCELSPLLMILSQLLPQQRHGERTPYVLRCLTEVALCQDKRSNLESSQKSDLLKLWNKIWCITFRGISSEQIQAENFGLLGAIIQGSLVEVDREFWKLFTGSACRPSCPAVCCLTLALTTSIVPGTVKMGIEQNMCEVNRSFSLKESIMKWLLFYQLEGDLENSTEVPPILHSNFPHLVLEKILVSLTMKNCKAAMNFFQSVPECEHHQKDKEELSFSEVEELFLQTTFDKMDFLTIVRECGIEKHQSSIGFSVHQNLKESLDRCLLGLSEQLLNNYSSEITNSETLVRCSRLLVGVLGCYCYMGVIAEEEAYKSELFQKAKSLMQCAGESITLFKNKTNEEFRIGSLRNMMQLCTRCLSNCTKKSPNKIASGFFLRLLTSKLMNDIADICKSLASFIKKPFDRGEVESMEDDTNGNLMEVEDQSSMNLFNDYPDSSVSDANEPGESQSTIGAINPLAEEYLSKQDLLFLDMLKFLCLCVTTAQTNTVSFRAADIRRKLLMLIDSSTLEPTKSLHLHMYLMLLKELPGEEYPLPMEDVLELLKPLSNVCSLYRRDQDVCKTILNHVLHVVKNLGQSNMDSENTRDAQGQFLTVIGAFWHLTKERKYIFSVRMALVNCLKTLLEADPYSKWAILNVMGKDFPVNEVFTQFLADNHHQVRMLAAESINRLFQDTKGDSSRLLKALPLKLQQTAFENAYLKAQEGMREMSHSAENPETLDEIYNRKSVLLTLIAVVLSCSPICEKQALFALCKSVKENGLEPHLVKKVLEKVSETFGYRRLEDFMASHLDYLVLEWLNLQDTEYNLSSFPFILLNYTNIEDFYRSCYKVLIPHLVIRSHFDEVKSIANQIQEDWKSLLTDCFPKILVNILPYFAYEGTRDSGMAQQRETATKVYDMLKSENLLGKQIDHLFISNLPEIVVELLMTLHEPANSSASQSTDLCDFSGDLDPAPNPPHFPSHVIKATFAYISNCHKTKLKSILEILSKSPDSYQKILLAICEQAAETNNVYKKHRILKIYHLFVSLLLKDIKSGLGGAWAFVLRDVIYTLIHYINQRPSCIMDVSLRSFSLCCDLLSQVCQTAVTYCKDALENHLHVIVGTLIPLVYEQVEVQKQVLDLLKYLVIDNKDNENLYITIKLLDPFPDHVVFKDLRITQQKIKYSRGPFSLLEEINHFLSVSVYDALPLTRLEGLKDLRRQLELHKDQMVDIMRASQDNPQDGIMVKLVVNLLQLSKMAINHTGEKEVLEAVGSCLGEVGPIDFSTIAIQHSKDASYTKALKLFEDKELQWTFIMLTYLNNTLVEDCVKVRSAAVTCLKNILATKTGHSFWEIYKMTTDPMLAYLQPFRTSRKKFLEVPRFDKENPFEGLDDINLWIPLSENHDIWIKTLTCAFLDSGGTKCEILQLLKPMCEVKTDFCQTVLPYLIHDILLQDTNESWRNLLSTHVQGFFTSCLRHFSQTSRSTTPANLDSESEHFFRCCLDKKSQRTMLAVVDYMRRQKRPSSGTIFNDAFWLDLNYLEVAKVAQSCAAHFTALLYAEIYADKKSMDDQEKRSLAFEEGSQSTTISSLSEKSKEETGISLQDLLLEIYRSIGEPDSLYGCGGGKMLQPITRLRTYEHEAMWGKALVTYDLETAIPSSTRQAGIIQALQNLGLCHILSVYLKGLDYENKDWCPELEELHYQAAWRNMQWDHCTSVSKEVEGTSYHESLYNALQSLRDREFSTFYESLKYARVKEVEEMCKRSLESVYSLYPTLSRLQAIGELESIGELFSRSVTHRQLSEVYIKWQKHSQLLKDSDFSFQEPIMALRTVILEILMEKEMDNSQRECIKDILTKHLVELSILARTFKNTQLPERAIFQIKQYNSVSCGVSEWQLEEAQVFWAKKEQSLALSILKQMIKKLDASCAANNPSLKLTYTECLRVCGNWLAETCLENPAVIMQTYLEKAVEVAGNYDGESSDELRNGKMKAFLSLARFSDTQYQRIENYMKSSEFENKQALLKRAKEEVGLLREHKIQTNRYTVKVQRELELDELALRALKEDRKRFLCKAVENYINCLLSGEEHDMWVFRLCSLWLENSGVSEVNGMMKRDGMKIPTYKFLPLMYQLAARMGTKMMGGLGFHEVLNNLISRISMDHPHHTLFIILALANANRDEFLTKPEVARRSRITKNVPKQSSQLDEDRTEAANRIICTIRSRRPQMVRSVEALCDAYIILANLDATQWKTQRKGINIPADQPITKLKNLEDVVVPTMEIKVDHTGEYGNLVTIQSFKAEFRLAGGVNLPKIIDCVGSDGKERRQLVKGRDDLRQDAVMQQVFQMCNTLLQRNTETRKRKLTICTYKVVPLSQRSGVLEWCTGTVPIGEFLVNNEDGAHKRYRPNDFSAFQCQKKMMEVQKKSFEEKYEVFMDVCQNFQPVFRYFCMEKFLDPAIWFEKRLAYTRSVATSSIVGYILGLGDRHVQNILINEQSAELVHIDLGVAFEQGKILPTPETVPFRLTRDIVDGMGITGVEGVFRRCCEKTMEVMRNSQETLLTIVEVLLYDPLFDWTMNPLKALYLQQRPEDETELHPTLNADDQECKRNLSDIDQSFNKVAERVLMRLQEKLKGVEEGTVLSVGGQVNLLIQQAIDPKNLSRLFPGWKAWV
Assay: ATM in Cell Western Assay (pKAP1 in etoposide-treated MCF-7 cells)
Format: cell-based
Details: MCF-7 cells, etoposide 100 μM, 1 hr, pKAP1 readout
pIC50: −log10 of the molar value.

Q: Input CN1C(=O)C2(CCC2)c2c1cnc1ccc(-c3cnc(OCCCN4CCCC(F)(F)C4)c(NS(C)(=O)=O)c3)cc21 [Example 298] , output reported pIC50.
Result: < 7.00

Q: Input CN(C)CCCOc1ncc(-c2ccc3ncc4c(c3c2)C2(CCC2)C(=O)N4C)cc1NS(=O)(=O)CS(C)(=O)=O [Example 274] , output reported pIC50.
Result: 7.00 to 9.00

Q: Input CCCCN(C)S(=O)(=O)Nc1cc(-c2ccc3ncc4c(c3c2)C2(CCC2)C(=O)N4C)cnc1OCCCN(C)C [Example 176] , output reported pIC50.
Result: 7.00 to 9.00

Q: Input CN(C)CCCOc1ncc(-c2ccc3ncc4c(c3c2)C2(CC2)C(=O)N4C)cc1NS(=O)(=O)c1ccc(Cl)nc1 [Example 105] , output reported pIC50.
Result: 7.00 to 9.00

----------
Biological target: UniProt P78527
Experiment: DNA-PK Enzyme-Linked Immunosorbent Assay (phosphorylation of GST-p53 (1-101) peptide)
Type: biochemical
Details: ELISA, 20 μM ATP
pIC50: −log10 of the molar value. Counter-ions that a name gives are not always drawn.
parameter measured: pIC50

Q: Input `CC(C)NCCOc1ncc(-c2cc3c(cc2F)ncc2c3[C@]3(C[C@H](COc4ccccc4)C3)C(=O)N2C)cc1NS(C)(=O)=O` , output reported pIC50.
Result: > 9.30

Q: Input CC(C)NCCOc1ncc(-c2cc3c4c(cnc3cc2F)N(C)C(=O)C42CCC2)cc1NS(=O)(=O)N1CCOCC1 [Example 373, hydrochloride] , output reported pIC50.
Result: 7.00 to 9.00

Q: Input `CC(C)NCCOc1ncc(-c2cc3c4c(cnc3cc2F)N(C)C(=O)C42CN(C(C)C)C2)cc1NS(=O)(=O)C1CC1` , output reported pIC50.
Result: 7.00 to 9.00

Q: Input CC(C)NCCOc1ncc(-c2cc3c(cc2F)ncc2c3[C@]3(C[C@H](c4ccccc4)C3)C(=O)N2C)cc1NS(C)(=O)=O [Example 414, hydrochloride] , output reported pIC50.
Result: 7.00 to 9.00

Q: Input `CO[C@H]1C[C@]2(C1)C(=O)N(C)c1cnc3cc(F)c(-c4cnc(OCCNC(C)C)c(NS(=O)(=O)N(C)C)c4)cc3c12` , output reported pIC50.
Result: 7.00 to 9.00

----------
Target: UniProt:Q13315
Assay: ATM in Cell Western Assay (pKAP1 in etoposide-treated MCF-7 cells)
Assay type: cell-based
Conditions: MCF-7 cells, etoposide 100 μM, 1 hr, pKAP1 readout
pIC50: −log10 of the molar value. Counter-ions that a name gives are not always drawn.
parameter measured: pIC50

Q: Input `CN(C)CCCNc1ncc(-c2ccc3ncc4c(c3c2)C2(CCC2)C(=O)N4C)cc1NS(C)(=O)=O` , output reported pIC50.
Result: 7.00 to 9.00

Q: Input Cc1ccc(S(=O)(=O)Nc2cc(-c3ccc4ncc5c(c4c3)C3(CCC3)C(=O)N5C)cnc2N2CCC(N(C)C)CC2)cc1 [Example 178, 2,2,2-trifluoroacetate] , output reported pIC50.
Result: 7.00 to 9.00

Q: Input `Cc1ccc(S(=O)(=O)Nc2cc(-c3ccc4ncc5c(c4c3)C3(CC3)C(=O)N5C)cnc2OCCCN(C)C)cc1` , output reported pIC50.
Result: 7.00 to 9.00

Q: Input CN1C(=O)C2(CCC2)c2c1cnc1cc(F)c(-c3cnc(OCCCN4CCC(F)CC4)c(NS(C)(=O)=O)c3)cc21 [Example 297, hydrochloride] , output reported pIC50.
Result: 7.00 to 9.00

Q: Input CN1C(=O)C2(CCC2)c2c1cnc1ccc(-c3cnc(OCCCN4CCCCC4)c(NS(=O)(=O)c4ccccc4)c3)cc21 [Example 132, hydrochloride] , output reported pIC50.
Result: 7.00 to 9.00

Q: Input CN1CCN(c2ncc(-c3cc4c5c(cnc4cc3F)N(C)C(=O)C53CC3)cc2NS(=O)(=O)c2ccccc2)CC1 [Example 117, hydrochloride] , output reported pIC50.
Result: 7.00 to 9.00

Q: Input `CN1C(=O)C2(CCC2)c2c1cnc1ccc(-c3cnc(N4CCC(N5CCCC(F)(F)C5)CC4)c(NS(C)(=O)=O)c3)cc21` , output reported pIC50.
Result: 7.00 to 9.00

Q: Input `CN(CCC#N)CCCOc1ncc(-c2ccc3ncc4c(c3c2)C2(CCC2)C(=O)N4C)cc1NS(C)(=O)=O` , output reported pIC50.
Result: < 7.00

Q: Input CC(Oc1cc(-c2ccc3ncc4c(c3c2)C2(CC2)C(=O)N4C)cnc1OCCCN(C)C)c1ccccc1 (centres unmarked) , output reported pIC50.
Result: < 7.00

Q: Input `COc1ncc(-c2ccc3ncc4c(c3c2)C2(CC2)C(=O)N4CC#N)cc1NS(=O)(=O)c1ccccc1` , output reported pIC50.
Result: 7.00 to 9.00

Q: Input `CN1CCN(CCCOc2ncc(-c3ccc4ncc5c(c4c3)C3(CCC3)C(=O)N5C)cc2NS(C)(=O)=O)CC1` , output reported pIC50.
Result: 7.00 to 9.00

Q: Input `CN(C)CCCOc1ncc(-c2ccc3ncc4c(c3c2)C2(CCC2)C(=O)N4C)cc1NS(=O)(=O)C1CCC1` , output reported pIC50.
Result: 7.00 to 9.00

Q: Input COc1ncc(-c2ccc3ncc4c(c3c2)C2(CC2)C(=O)N4C)cc1NS(=O)(=O)c1cccc(C(C)O)c1 (centres unmarked) , output reported pIC50.
Result: 7.00 to 9.00

Q: Input CN(C)CCCOc1ncc(-c2ccc3ncc4c(c3c2)C2(CCC2)C(=O)N4C)cc1NS(=O)(=O)c1cc(Cl)cc(Cl)c1 [Example 157, hydrochloride] , output reported pIC50.
Result: 7.00 to 9.00

Q: Input `Cc1oncc1S(=O)(=O)Nc1cc(-c2ccc3ncc4c(c3c2)C2(CC2)C(=O)N4C)cnc1OCCCN(C)C` , output reported pIC50.
Result: < 7.00

Q: Input CN1C(=O)C2(CCC2)c2c1cnc1ccc(-c3cnc(OCCCN4CCCCC4)c(NS(=O)(=O)c4ccccc4F)c3)cc21 [Example 195, hydrochloride] , output reported pIC50.
Result: 7.00 to 9.00

Q: Input `CN(C)CCCOc1ncc(-c2ccc3ncc4c(c3c2)C2(CC2)C(=O)N4C)cc1NS(=O)(=O)c1ccsc1` , output reported pIC50.
Result: 9.00 to 9.30

Q: Input `COc1ncc(-c2ccc3ncc4c(c3c2)C2(CC2)C(=O)N4CCC#N)cc1NS(=O)(=O)c1ccccc1` , output reported pIC50.
Result: < 7.00

Q: Input `CN(C)CCCOc1ncc(-c2ccc3ncc4c(c3c2)C2(CC2)C(=O)N4C)cc1NS(=O)(=O)c1ccccc1OC(F)(F)F` , output reported pIC50.
Result: 9.00 to 9.30

Q: Input `COCCN(CCOC)S(=O)(=O)Nc1cc(-c2ccc3ncc4c(c3c2)C2(CCC2)C(=O)N4C)cnc1OCCCN(C)C` , output reported pIC50.
Result: 7.00 to 9.00

Q: Input `CN(C)CCCOc1ncc(-c2ccc3ncc4c(c3c2)C2(CC2)C(=O)N4C)cc1-c1ccccc1` , output reported pIC50.
Result: < 7.00

Q: Input `CN1C(=O)C2(CCC2)c2c1cnc1ccc(-c3cnc(OCCCN4CCCC4)c(NS(=O)(=O)c4ccccc4)c3)cc21` , output reported pIC50.
Result: 7.00 to 9.00

Q: Input CN(C)CCCOc1ncc(-c2ccc3ncc4c(c3c2)C2(CCC2)C(=O)N4C)cc1NS(=O)(=O)c1cncc(C(F)(F)F)c1 [Example 141, hydrochloride] , output reported pIC50.
Result: 7.00 to 9.00

Q: Input `CN1C(=O)C2(CC2)c2c1cnc1ccc(-c3cnc(OCCCN4CCCCC4)c(NS(=O)(=O)c4ccccc4)c3)cc21` , output reported pIC50.
Result: 9.00 to 9.30

Q: Input CN1C(=O)C2(CCC2)c2c1cnc1ccc(-c3cnc(N4CC(N5CCCCC5)C4)c(NS(C)(=O)=O)c3)cc21 [Example 321, hydrochloride] , output reported pIC50.
Result: 7.00 to 9.00

Q: Input `CN1CCCN(c2ncc(-c3ccc4ncc5c(c4c3)C3(CC3)C(=O)N5C)cc2NS(=O)(=O)c2ccccc2)CC1` , output reported pIC50.
Result: 7.00 to 9.00

----------
Target: DNA-PK (Homo sapiens (Human), UniProt P78527)
Assay: DNA-PK Enzyme-Linked Immunosorbent Assay (phosphorylation of GST-p53 (1-101) peptide)
Type: biochemical
Settings: ELISA, 20 μM ATP
pIC50: −log10 of the molar value. Counter-ions that a name gives are not always drawn.
parameter measured: pIC50

Q: Input `COc1cccc([C@H]2C[C@@]3(C2)C(=O)N(C)c2cnc4cc(F)c(-c5cnc(OCCNC(C)C)c(NS(C)(=O)=O)c5)cc4c23)n1` , output reported pIC50.
Result: 7.00 to 9.00

Q: Input CC(C)NCCOc1ncc(-c2cc3c(cc2F)ncc2c3[C@]3(C[C@H](OC(C)c4ccccc4)C3)C(=O)N2C)cc1NS(C)(=O)=O (stereo partly drawn) , output reported pIC50.
Result: > 9.30

Q: Input CC(C)NCCOc1ncc(-c2cc3c4c(cnc3cc2F)N(C)C(=O)C42CN(C3CCC3)C2)cc1NS(C)(=O)=O [Example 497, hydrochloride] , output reported pIC50.
Result: 7.00 to 9.00

Q: Input `CC(C)NCCOc1ncc(-c2cc3c4c(cnc3cc2F)N(C)C(=O)C42CN(c3ccc(C(C)C)cc3)C2)cc1NS(C)(=O)=O` , output reported pIC50.
Result: 9.00 to 9.30

Q: Input CN1C(=O)C2(CCC2)c2c1cnc1ccc(-c3cnc(N4CCC(N(C)C)C4)c(NS(C)(=O)=O)c3)cc21 (racemic) , output reported pIC50.
Result: 7.00 to 9.00

Q: Input `CO[C@H]1C[C@@]2(C1)C(=O)N(C)c1cnc3cc(F)c(-c4cnc(N5CCC(N6CCCCC6)CC5)c(NS(C)(=O)=O)c4)cc3c12` , output reported pIC50.
Result: 7.00 to 9.00
